Values were extracted from the supplement of paper PMC10065799.

Test system: Fer (mouse)
Assay: phosphorylation enrichment, bacterial display (enrichment ratio); higher = better substrate or ligand; peptides without Tyr show the background
Listed here are sequences together with their documented phosphorylation enrichment.

{"sequenceData": "HAEERYGKELV [PSTPIP1_Y53_Q48H]", "phosphorylation enrichment": 0.732}
{"sequenceData": "SGSIHYSCVPR [GLB1_Y57_R59C]", "phosphorylation enrichment": 0.578}
{"sequenceData": "VNTMLYEKFTF [TEK_Y1108_T1106M_YF]", "phosphorylation enrichment": 13.7}
{"sequenceData": "FQHLRYIKQLG [SAMHD1_Y146_R143H]", "phosphorylation enrichment": 0.436}
{"sequenceData": "GKGGSYSQAAS [HLA-B_Y344_C349S]", "phosphorylation enrichment": 0.441}
{"sequenceData": "ALEHKYWALGQ [MAP1A_Y1555_Q1553H]", "phosphorylation enrichment": 0.492}
{"sequenceData": "IQKWEYVPLGT [FAH_Y244_P249T]", "phosphorylation enrichment": 0.416}
{"sequenceData": "MARDIYQASYY [LTK_Y672_R673Q]", "phosphorylation enrichment": 1.97}
{"sequenceData": "EFKDAYKFAAD [BRDT_Y335_YF]", "phosphorylation enrichment": 0.408}

---

Molecular target: SHP2-C SH2
Experiment: SH2 binding enrichment of the phosphorylated peptide, bacterial display (enrichment ratio); higher = better substrate or ligand; peptides without Tyr show the background
attributeMeasured: SH2 binding enrichment

{"sequenceData": "LRYEVYGGENE [STOX1_Y610]", "valueMeasured": 0.56}
{"sequenceData": "SIVEDYRPPFF [ACVRL1_Y421_G416S_YF]", "valueMeasured": 0.73}
{"sequenceData": "RAILLYEYVGK [NATD1_Y45_V42I]", "valueMeasured": 1.25}
{"sequenceData": "SSPRRYTIAAL [TTR_Y125_G121S]", "valueMeasured": 0.789}
{"sequenceData": "ADARMYGVLPR [PLP1_Y207_W212R]", "valueMeasured": 0.629}
{"sequenceData": "LDFPEYDGVDR [CASQ1_Y43]", "valueMeasured": 0.667}

---

Listed here are sequences together with their documented SH2 binding enrichment.
Biological target: Grb2 SH2 (UniProt P62993)
Sequence (P62993 whole entry, looked up): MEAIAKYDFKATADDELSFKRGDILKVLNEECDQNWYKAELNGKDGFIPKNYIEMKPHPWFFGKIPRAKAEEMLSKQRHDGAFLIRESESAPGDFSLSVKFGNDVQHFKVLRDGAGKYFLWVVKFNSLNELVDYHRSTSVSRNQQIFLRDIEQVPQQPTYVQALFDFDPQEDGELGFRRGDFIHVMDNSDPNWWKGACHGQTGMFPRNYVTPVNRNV
Experiment: SH2 binding enrichment of the phosphorylated peptide, bacterial display (enrichment ratio); higher = better substrate or ligand; peptides without Tyr show the background

{"sequenceData": "MGGSLYFSYPD [HIKESHI_Y55_V54L]", "SH2 binding enrichment": 0.77}
{"sequenceData": "RVLHNYLVWRV [ECEL1_Y400]", "SH2 binding enrichment": 1.74}
{"sequenceData": "PKKKQYTSIHH [APP_Y728_L723P]", "SH2 binding enrichment": 1.01}
{"sequenceData": "DLKFHYDNTAG [KDR_Y1214_P1210L]", "SH2 binding enrichment": 0.867}
{"sequenceData": "AGADGYDFLAP [FOXL2_Y186_G187D_YF]", "SH2 binding enrichment": 0.883}
{"sequenceData": "GKGGSYSQAAS [HLA-B_Y344_C349S]", "SH2 binding enrichment": 0.609}

---

Test system: c-Abl (mouse)
Assay: phosphorylation enrichment, bacterial display (enrichment ratio); higher = better substrate or ligand; peptides without Tyr show the background
Each entry gets not satisfied if its phosphorylation enrichment stays under 1, and satisfied if its phosphorylation enrichment is 1 or above.

{"sequenceData": "EYQKKYSDADI [CKAP5_Y1860_K1857Q]", "labelClass": "not satisfied"}
{"sequenceData": "PEADKYHLTFA [FGG_Y300_R301H_YF]", "labelClass": "satisfied"}
{"sequenceData": "KFWREYILSLE [GPC3_Y299_YF]", "labelClass": "not satisfied"}
{"sequenceData": "LFPANYVAPMT [GRAP2_Y324]", "labelClass": "not satisfied"}
{"sequenceData": "TPTFPYLLPKS [PLD2_Y580_YF]", "labelClass": "not satisfied"}
{"sequenceData": "IMAYFYMCDSA [CASD1_Y382_R386S]", "labelClass": "satisfied"}
